These measurements were taken from patent US20020177126A1.

- Test system: Bac-F (UniProt P03420 26-524)
- Sequence (P03420 26-524): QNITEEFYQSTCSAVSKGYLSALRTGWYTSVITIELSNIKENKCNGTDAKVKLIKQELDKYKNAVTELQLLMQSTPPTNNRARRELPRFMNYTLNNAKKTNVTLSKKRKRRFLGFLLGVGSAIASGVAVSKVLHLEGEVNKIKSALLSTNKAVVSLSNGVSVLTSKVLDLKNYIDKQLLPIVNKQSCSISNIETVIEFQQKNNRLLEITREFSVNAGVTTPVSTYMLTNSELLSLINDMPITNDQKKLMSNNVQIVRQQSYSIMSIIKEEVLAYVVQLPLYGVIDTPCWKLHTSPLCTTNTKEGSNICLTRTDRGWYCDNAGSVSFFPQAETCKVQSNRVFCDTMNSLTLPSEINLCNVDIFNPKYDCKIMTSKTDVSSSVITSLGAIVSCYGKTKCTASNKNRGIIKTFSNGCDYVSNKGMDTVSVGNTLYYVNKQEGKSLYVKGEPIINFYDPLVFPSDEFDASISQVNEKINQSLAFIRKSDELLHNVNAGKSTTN
- Experiment summary: BIAcore, Mab vs Bac-F, 1:1
Recorded metric: koff

* A1e9 (monoclonal antibody) (antibody, V domains shown) VH: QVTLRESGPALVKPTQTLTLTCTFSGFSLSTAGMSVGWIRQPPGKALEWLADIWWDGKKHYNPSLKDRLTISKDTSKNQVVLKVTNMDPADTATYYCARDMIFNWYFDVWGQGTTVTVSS VL: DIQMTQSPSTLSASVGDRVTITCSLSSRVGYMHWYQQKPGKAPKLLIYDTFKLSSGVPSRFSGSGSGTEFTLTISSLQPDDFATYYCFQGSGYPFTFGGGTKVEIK | 0.000143 s⁻¹
* SYNAGIS® (antibody, V domains shown, also called SYNAGIS ®/SYNAGIS ® (HC/LC)) VH: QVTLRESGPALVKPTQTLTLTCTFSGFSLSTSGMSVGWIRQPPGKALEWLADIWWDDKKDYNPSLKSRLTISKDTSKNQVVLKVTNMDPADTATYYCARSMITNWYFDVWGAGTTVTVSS VL: DIQMTQSPSTLSASVGDRVTITCKCQLSVGYMHWYQQKPGKAPKLLIYDTSKLASGVPSRFSGSGSGTEFTLTISSLQPDDFATYYCFQGSGYPFTFGGGTKLEIK | 0.000515 s⁻¹
* A12a6 (monoclonal antibody) (antibody, V domains shown) VH: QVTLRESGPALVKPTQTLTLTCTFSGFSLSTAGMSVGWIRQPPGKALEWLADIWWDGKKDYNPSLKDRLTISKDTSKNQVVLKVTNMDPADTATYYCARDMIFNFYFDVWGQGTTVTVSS VL: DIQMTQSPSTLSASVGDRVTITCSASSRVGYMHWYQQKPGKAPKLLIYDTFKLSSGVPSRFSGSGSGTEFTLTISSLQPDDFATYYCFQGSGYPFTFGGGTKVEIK | 1.65e-05 s⁻¹
* A8c7 (monoclonal antibody) (antibody, V domains shown) VH: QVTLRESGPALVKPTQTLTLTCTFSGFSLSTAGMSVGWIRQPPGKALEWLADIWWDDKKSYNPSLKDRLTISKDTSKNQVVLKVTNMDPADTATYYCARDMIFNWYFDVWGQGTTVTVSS VL: DIQMTQSPSTLSASVGDRVTITCSPSSRVGYMHWYQQKPGKAPKLLIYDTRYQSSGVPSRFSGSGSGTEFTLTISSLQPDDFATYYCFQGSGYPFTFGGGTKLEIK | 8.75e-05 s⁻¹
* A13c4 (monoclonal antibody) (antibody, V domains shown) VH: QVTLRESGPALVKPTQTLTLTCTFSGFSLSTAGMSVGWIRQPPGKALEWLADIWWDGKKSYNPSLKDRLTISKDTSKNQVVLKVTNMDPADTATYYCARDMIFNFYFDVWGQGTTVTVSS VL: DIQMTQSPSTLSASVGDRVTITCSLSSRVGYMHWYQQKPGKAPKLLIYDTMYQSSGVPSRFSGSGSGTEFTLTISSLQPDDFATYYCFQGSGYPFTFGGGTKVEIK | 3.96e-05 s⁻¹
* A4B4 (monoclonal antibody) (antibody, V domains shown, also called A4B4/A4B4 (HC/LC)) VH: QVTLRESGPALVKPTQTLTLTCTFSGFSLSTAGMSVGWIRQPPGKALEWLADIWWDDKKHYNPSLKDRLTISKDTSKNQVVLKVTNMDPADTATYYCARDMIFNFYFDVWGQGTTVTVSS VL: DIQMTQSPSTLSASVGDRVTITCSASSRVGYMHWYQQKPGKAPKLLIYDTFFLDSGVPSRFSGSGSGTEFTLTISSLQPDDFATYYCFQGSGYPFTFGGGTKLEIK | 1.06e-05 s⁻¹
* P12f4 (monoclonal antibody) (antibody, V domains shown) VH: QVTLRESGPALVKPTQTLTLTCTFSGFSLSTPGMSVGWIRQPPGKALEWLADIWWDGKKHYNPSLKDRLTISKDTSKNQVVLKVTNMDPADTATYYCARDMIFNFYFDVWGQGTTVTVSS VL: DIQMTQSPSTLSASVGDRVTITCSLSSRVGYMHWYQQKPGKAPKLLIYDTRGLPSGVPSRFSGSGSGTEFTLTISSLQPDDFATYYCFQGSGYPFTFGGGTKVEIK | 5.55e-05 s⁻¹
